assayDetails: Bioavailability and pharmacokinetic profile after nasal / oral administration
Format: in vivo, mammals including rhesus monkeys and humans
particulars: plasma; ca. 5 to 10 minutes following nasal administration
outcomeMeasure: concentration at 10 min (ng/mL)
Just the number please, in ng/mL, no unit attached.

Qu. Item `CN1[C@@H]2CC[C@H]1C[C@@H](OC(=O)c1c[nH]c3ccccc13)C2` : provide concentration at 10 min
Ans. 200

---

assayDetails: 26 week toxicity study in the rat
particulars: in vivo, po, 26 weeks, read-out: no toxic effect (dose), rat
outcomeMeasure: NOAEL at 4368 h

Qu. Item CN1[C@@H]2CC[C@H]1C[C@@H](OC(=O)c1c[nH]c3ccccc13)C2 [compound E] : provide NOAEL at 4368 h
Ans. 16 to 45 mg/kg/day

Where these numbers come from: patent US5561149A
